system: Raphanus sativus L. cv. Cherry Belle cotyledons; experiment: Radish cotyledon bioassay (expansion growth and chlorophyll accumulation); type: in vivo; details: Table 3, 48 h incubation, 20 mg/l
property-name: hormone-like activity with respect to expansion growth (in words)

Use the examples below as a reference point.
>>> print(df.to_string())
                                   compound                              assay_target           observed_value
0  CCCCCCCCCC(=O)NCCO [NAE-10:0, N-Decanoyl-2-aminoethanol]  Raphanus sativus L. cv. Cherry Belle cotyledons  cytokinin-like activity
1  CC(=O)NCCO [NAE-2, N-Acetyl-2-aminoethanol]  Raphanus sativus L. cv. Cherry Belle cotyledons   ethylene-like activity
2  CCCCCCCCCCCCCCCC(=O)NCCO [NAE-16:0, N-Hexadecanoyl-2-aminoethanol]  Raphanus sativus L. cv. Cherry Belle cotyledons  cytokinin-like activity
3  CCCC(=O)NCCO [NAE-4:0, N-Butyroyl-2-aminoethanol]  Raphanus sativus L. cv. Cherry Belle cotyledons   ethylene-like activity
4  CCCCCC(=O)NCCO [NAE-6:0, N-Hexanoly-2-aminoethanol]  Raphanus sativus L. cv. Cherry Belle cotyledons   ethylene-like activity

# input for lookup
The recorded hormone-like activity with respect to expansion growth (in words) for entry CCCCCCCC/C=C\CCCCCCCC(=O)NCCO [NAE-18:1(Δ9), N-Oleoyl-2-aminoethanol] equals ethylene-like activity
